# Target or test system: NPY Y2 receptor (Homo sapiens, UniProt P49146)
# Sequence (P49146 1-381): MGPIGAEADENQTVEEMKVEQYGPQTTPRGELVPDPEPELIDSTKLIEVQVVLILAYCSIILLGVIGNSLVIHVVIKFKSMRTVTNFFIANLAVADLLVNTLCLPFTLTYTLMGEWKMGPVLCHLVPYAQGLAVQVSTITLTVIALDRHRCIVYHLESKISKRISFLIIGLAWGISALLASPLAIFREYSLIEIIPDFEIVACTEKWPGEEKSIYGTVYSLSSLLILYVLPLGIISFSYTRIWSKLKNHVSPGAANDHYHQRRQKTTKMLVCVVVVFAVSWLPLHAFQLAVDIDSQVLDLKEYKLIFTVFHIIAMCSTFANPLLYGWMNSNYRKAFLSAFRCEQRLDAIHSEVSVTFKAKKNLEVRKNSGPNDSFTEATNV
# Protocol description: Neuropeptide Y2 radioligand binding assay ([125I]PYY, KAN-Ts membranes)
# Measurement context: apparent Ki=IC50/(1+C/KD)
Measurement kind: Ki (nM)

{"columns": ["Molecule", "Ki / nM"],
 "data": [
  ["Cc1noc(C)c1C(=O)Nc1ccc(N2CCN(C(c3ccccc3)c3ccc(Cl)cc3)CC2)c(C#N)c1 (centres unmarked)", 84],
  ["Cc1noc(C)c1C(=O)Nc1ccc(N2CCN(C(c3ccccc3)c3ccccc3)CC2)c(C#N)c1", 14],
  ["CCC(CC)C(=O)Nc1ccc(N2CCN(C(c3ccccc3)c3ccccc3C)CC2)c(C#N)c1 (centres unmarked)", 36]
]}

[A] N#Cc1cc(NC(=O)C2CC2)ccc1N1CCN(C(c2ccccc2)c2cccnc2)CC1 (centres unmarked)
[B] CCC(CC)C(=O)Nc1ccc(N2CCN(C(c3ccccc3)c3ccc(Cl)cc3)CC2)c(C#N)c1 (centres unmarked)
input: Between the entries labelled A and B , which has a larger Ki value on record? Record your answer as the label of the chosen record.
output: B
(B: 63 nM, A: 11 nM)

###

# Target or test system: NPY Y2 receptor (Homo sapiens, UniProt P49146)
# Protocol description: Neuropeptide Y2 pKB assay (FLIPR, KAN-Ts cells stably expressing chimeric G proteins)
# Assay type: cell-based
# Measurement context: apparent pKB, modified Cheng-Prusoff correction
Measurement kind: Kb (nM)

{"columns": ["Compound", "Measurement kind", "Number"],
 "data": [
  ["CCC(CC)C(=O)Nc1ccc(N2CCN(C(c3ccccc3)c3ccncc3)CC2)c(C#N)c1 (stereo not shown)", "Kb", 50.1],
  ["CCC(CC)C(=O)Nc1ccc(N2CCN(C(c3ccccc3)c3noc(C(C)C)n3)CC2)c(F)c1 (stereo not shown)", "Kb", 50.1]
]}

[A] O=C(Nc1ccc(N2CCN(C(c3ccccc3)c3ncco3)CC2)c(F)c1)C1CCCC1 (stereo not shown)
[B] CCC(CC)C(=O)Nc1ccc(N2CCN(C(c3ccccc3)c3nnc(C(CC)CC)o3)CC2)c(F)c1 (stereo not shown)
input: Of A and B , whose reported Kb is the larger number? Identify your pick by its label.
output: A

###

# Target or test system: NPY Y2 receptor (Homo sapiens)
# Protocol description: Neuropeptide Y2 radioligand binding assay ([125I]PYY, KAN-Ts membranes)
# Measurement context: KAN-Ts membranes endogenously expressing Y2, [125I]PYY (80 pM), 1 h at rt
Measurement kind: IC50 (nM)

{"columns": ["Molecule", "Target or test system", "IC50 / nM"],
 "data": [
  ["CCC(CC)C(=O)Nc1ccc(N2CCN(C(c3ccccc3)c3nc(C(C)C)no3)CC2)c(F)c1 (stereo not shown)", "NPY Y2 receptor (Homo sapiens)", 35],
  ["CCC(CC)C(=O)Nc1ccc(N2CCN(C(C3=N[C@H](C(=O)OC)CO3)c3ccccc3)CC2)c(F)c1 (stereo partly shown)", "NPY Y2 receptor (Homo sapiens)", 41]
]}

[I] CC[C@@H](C)C(=O)Nc1ccc(N2CCN(C(c3ccccc3)c3ncco3)CC2)c(F)c1 (stereo in doubt)
[II] CCC(CC)C(=O)Nc1ccc(N2CCN(C(c3ccccc3)C3CCOC3)CC2)c(F)c1 (stereo not shown)
[III] CCN(CC)C(=O)Cc1ccc(N2CCN(C(c3ccccc3)c3ccccc3)CC2)c(F)c1
input: Reorder: IC50, max to min. Output spec: a listing of the labels in the requested order.
output: III, II, I
(III: 1550 nM, II: 460 nM, I: 240 nM)
